meta.source: PubChem BioAssay AID743417

Test system: Clone20 osteoblast Shn3 3'UTR firefly luciferase, 24 h
Assay: Shn3 3'UTR reporter inhibitors, dose response, cell-based, Clone20 osteoblasts, luminescence, dry powder, set 2 (AID 743417)
Inconclusive results are not listed. Active and inactive are the calls of the source.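 The calls were made as follows: active = compounds lowering the luciferase signal with a fitted half-maximal dose at most twice their top valid dose (cut at about 30 µM in these data); inconclusive = flat fits with moderate signal loss, or poor fits; inactive = the rest.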
Classes used: 1 (yes) for active, 0 (no) for inactive

{"COMPOUND": "O=C(Nc1ccc2nc3n(c(=O)c2c1)CCCC3)c1cc([N+](=O)[O-])ccc1F", "DISCRETE_LABEL": "1 (yes)"}
{"COMPOUND": "C=CCSc1nc2ccccc2n1C(=O)/C=C/c1ccc(OC)c(OC)c1", "DISCRETE_LABEL": "1 (yes)"}
{"COMPOUND": "Cc1ccc(S(=O)(=O)N2CCc3ccccc3CC2)cc1", "DISCRETE_LABEL": "1 (yes)"}
{"COMPOUND": "CCc1c(C)nc2ncnn2c1N1CCN(S(=O)(=O)c2ccc(OC)cc2)CC1", "DISCRETE_LABEL": "1 (yes)"}
{"COMPOUND": "Oc1c(CN2CCN(c3ccc(F)cc3)CC2)cc(Cl)c2cccnc12", "DISCRETE_LABEL": "1 (yes)"}
{"COMPOUND": "O=C(Nc1nc(-c2ccccn2)cs1)c1ccc(Cl)s1", "DISCRETE_LABEL": "1 (yes)"}
{"COMPOUND": "O=C1C(Br)=C(c2ccccc2)C(c2ccccc2)=C1c1ccccc1", "DISCRETE_LABEL": "1 (yes)"}
{"COMPOUND": "Cc1ccc(C(=O)/C=C/c2ccc(-c3ccc(C)cc3)o2)cc1", "DISCRETE_LABEL": "1 (yes)"}
{"COMPOUND": "C#CC(=O)N(c1cccc(OC)c1)C(C(=O)NC1CCCC1)c1cccs1 (centres undefined)", "DISCRETE_LABEL": "1 (yes)"}
{"COMPOUND": "Cc1ccc(NC(=O)c2cc3ccccc3oc2=O)cc1S(=O)(=O)N(C)C", "DISCRETE_LABEL": "1 (yes)"}
{"COMPOUND": "CCOC(=O)c1c2c(n(Cc3ccccc3)c1C)C(=O)C(=O)c1ccccc1-2", "DISCRETE_LABEL": "1 (yes)"}
{"COMPOUND": "Fc1ccc(NC(=S)N2CCCN(c3ccc(C(F)(F)F)cn3)CC2)c(F)c1", "DISCRETE_LABEL": "1 (yes)"}
{"COMPOUND": "Cc1ccc(-n2nnnc2C(Cl)(Cl)c2nnnn2-c2ccc(C)cc2)cc1", "DISCRETE_LABEL": "1 (yes)"}
{"COMPOUND": "Cc1ccc([C@@H]2CC(=O)[C@@H]3CN(S(=O)(=O)c4ccccc4C)[C@H](c4ccc(Cl)cc4)C[C@@H]3N2S(=O)(=O)c2ccc(C)cc2)cc1", "DISCRETE_LABEL": "1 (yes)"}
{"COMPOUND": "O=C(CN1C(=O)c2ccccc2S1(=O)=O)c1ccc(Cl)cc1Cl", "DISCRETE_LABEL": "1 (yes)"}
{"COMPOUND": "Cc1ccc(S(=O)(=O)c2ccc([N+](=O)[O-])cn2)cc1", "DISCRETE_LABEL": "1 (yes)"}
{"COMPOUND": "O=C(Nc1ccc2nc3n(c(=O)c2c1)CCCCC3)c1cc([N+](=O)[O-])ccc1F", "DISCRETE_LABEL": "1 (yes)"}
{"COMPOUND": "c1ccc(-c2cc3nc(NCC4CC4)nc(NCC4CCCCC4)c3s2)cc1", "DISCRETE_LABEL": "1 (yes)"}
{"COMPOUND": "CC[C@@H](C(=O)[C@@H](C)[C@@H](O)[C@H](C)CCc1ccc(C)c(O)c1C(=O)O)[C@H]1O[C@](CC)([C@H]2CC[C@](O)(CC)[C@H](C)O2)C[C@@H]1C", "DISCRETE_LABEL": "1 (yes)"}
{"COMPOUND": "CCN(CC)CC(C)(C)C(=O)/C=C/c1ccc(/C=C/C(=O)C(C)(C)CN(CC)CC)cc1", "DISCRETE_LABEL": "1 (yes)"}
{"COMPOUND": "CCCCCCCSc1cc(OC)c(CCNC)cc1OC", "DISCRETE_LABEL": "1 (yes)"}
{"COMPOUND": "CC(=O)OCC(=O)[C@@]1(O)CC[C@H]2[C@@H]3CCC4=CC(=O)CC[C@]4(C)[C@H]3C(=O)C[C@@]21C", "DISCRETE_LABEL": "1 (yes)"}
{"COMPOUND": "NC(=O)c1cc(N2C(=O)C=CC2=O)ccc1Cl", "DISCRETE_LABEL": "1 (yes)"}
{"COMPOUND": "O=C(Nc1ccc(-c2nc3ccccc3o2)cc1)c1ccc(N2CCOCC2)c([N+](=O)[O-])c1", "DISCRETE_LABEL": "1 (yes)"}
{"COMPOUND": "O=C1[C@H]2[C@@H](c3ccc(F)cc3)N3C(=O)N(c4ccccc4)C(=O)[C@@]3(Cc3ccccc3)[C@H]2C(=O)N1C1CCCCC1", "DISCRETE_LABEL": "0 (no)"}
{"COMPOUND": "NC(CCc1ccccc1)c1csc(NC(=O)Nc2ccccc2Oc2ccccc2)n1 (centres undefined)", "DISCRETE_LABEL": "1 (yes)"}
{"COMPOUND": "CCC(=O)N1c2ccc(S(=O)(=O)N3CCN(c4ccc([N+](=O)[O-])cc4)CC3)cc2CC1C (centres undefined)", "DISCRETE_LABEL": "1 (yes)"}
{"COMPOUND": "O=C(/C=C1\\C(=O)Nc2ccccc21)/C=C1\\C(=O)Nc2ccccc21", "DISCRETE_LABEL": "1 (yes)"}
{"COMPOUND": "CCC(C)NS(=O)(=O)c1ccc(S(=O)(=O)N2CCCC3(CCCCC3)C2)cc1 (centres undefined)", "DISCRETE_LABEL": "1 (yes)"}
{"COMPOUND": "CC(=O)O[C@H]1CCC2C3CC[C@H]4[C@@H](O)[C@H](O)CC[C@]4(C)C3CC[C@@]21C (some centres undefined)", "DISCRETE_LABEL": "0 (no)"}
{"COMPOUND": "Cc1cc(C2=NNC(=NC3CC3)SC2)c(C)n1-c1ccccc1F", "DISCRETE_LABEL": "1 (yes)"}
{"COMPOUND": "CCN(CC)S(=O)(=O)c1ccc(S(=O)(=O)N2CCCC(C(=O)NC3CC3)C2)cc1 (centres undefined)", "DISCRETE_LABEL": "1 (yes)"}
{"COMPOUND": "CCN1CCN(Cc2ccc(NC(=O)c3ccc(C)c(/C=C/c4cnc(Nc5cc(N6CCNCC6)nc(C)n5)cn4)c3)cc2C(F)(F)F)CC1", "DISCRETE_LABEL": "1 (yes)"}
{"COMPOUND": "O=C(c1cnc(N2CCN(c3ccccn3)CC2)c2ccccc12)N1CCN(c2cccc(Cl)c2)CC1", "DISCRETE_LABEL": "1 (yes)"}
{"COMPOUND": "CCCC(=O)OCCNc1cc(Sc2nccn2C)c2nonc2c1[N+](=O)[O-]", "DISCRETE_LABEL": "1 (yes)"}
{"COMPOUND": "CCOC(=O)C1(CCOc2ccccc2)CCN(Cc2ccc(OC)c(COC)c2)CC1", "DISCRETE_LABEL": "1 (yes)"}
{"COMPOUND": "CCOC(=O)c1c(NC(=O)c2nn(CC)cc2Br)sc(C)c1C", "DISCRETE_LABEL": "1 (yes)"}
{"COMPOUND": "CCOc1ccc(Cn2nnc(C(=O)Nc3cc(OC)cc(OC)c3)c2N)cc1", "DISCRETE_LABEL": "1 (yes)"}
{"COMPOUND": "Cc1cc2c(cc(C(=O)N3CCC(C(=O)NC4CCCC4)CC3)n2Cc2c(F)cccc2Cl)o1", "DISCRETE_LABEL": "1 (yes)"}
